Biological target: T1, biotinylated Avi-UPF2-MIF4GIII (UniProt Q9HAU5 761-1054, biotin on the Avi tag (BirA))
T1 construct: UPF2, third middle-domain of eukaryotic initiation factor 4G (MIF4GIII), residues 761-1054; Avi tag added by site-directed mutagenesis to UPF2-MIF4GIII; also called immobilized UPF2-MIF4GIII; source: E. coli BL21 Rosetta2(DE3), purified (Ni-NTA, TEV, reverse IMAC, ion exchange); biotinylated with BirA, SEC
T1 sequence (looked up): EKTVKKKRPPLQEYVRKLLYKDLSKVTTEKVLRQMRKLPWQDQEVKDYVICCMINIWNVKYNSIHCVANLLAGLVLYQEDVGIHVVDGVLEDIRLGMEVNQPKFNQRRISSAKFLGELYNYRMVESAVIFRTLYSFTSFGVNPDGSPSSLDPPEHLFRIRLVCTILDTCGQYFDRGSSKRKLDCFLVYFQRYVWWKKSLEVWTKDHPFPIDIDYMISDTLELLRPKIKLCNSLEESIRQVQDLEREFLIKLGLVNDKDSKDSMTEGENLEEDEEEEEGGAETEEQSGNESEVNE
Test: SPR; 350 RU biotinylated Avi-UPF2-MIF4GIII immobilised on an SA chip (Biacore T200); UPF3B and UPF3A constructs injected; 15°C; 300 mM NaCl, 25 mM HEPES pH 7.4, 0.25 mM TCEP, 0.05% Tween-20; global fit, 1:1 binding model
Conditions: both partners purified
QUANTITY MEASURED: pKd
Answers are plain numbers, as −log10 of the molar value.

Recorded results for 3 binders are shown here.
{"BINDER": "UPF3A-58–206-Iso1 (domain or fragment, human, UniProt Q9H1J1 58-206, looked up, Codon-optimized for E. coli, gene-synthesized; also called UPF3A-58–208 (as printed once); source: E. coli BL21 Rosetta2(DE3), purified (Ni-NTA, TEV, reverse IMAC, ion exchange)) KPREEKRTALSKVVIRRLPPGLTKEQLEEQLRPLPAHDYFEFFAADLSLYPHLYSRAYINFRNPDDILLFRDRFDGYIFLDSKGLEYPAVVEFAPFQKIAKKKLRKKDAKTGSIEDDPEYKKFLETYCVEEEKTSANPETLLGEMEAKT", "pKd": 9.66}
{"BINDER": "UPF3A-58–206-NOPS* C185A-V186T-E187D (domain or fragment, human, UniProt Q9H1J1 58-206, looked up, also called NOPS* construct; source: E. coli BL21 Rosetta2(DE3), purified (Ni-NTA, TEV, reverse IMAC, ion exchange)) KPREEKRTALSKVVIRRLPPGLTKEQLEEQLRPLPAHDYFEFFAADLSLYPHLYSRAYINFRNPDDILLFRDRFDGYIFLDSKGLEYPAVVEFAPFQKIAKKKLRKKDAKTGSIEDDPEYKKFLETYATDEEKTSANPETLLGEMEAKT", "pKd": 8.59}
{"BINDER": "UPF3B-41–189 Y167A (domain or fragment, human, UniProt Q9BZI7 41-189, looked up, UPF3B, human, residues 41-189 with Y167A; source: E. coli BL21 Rosetta2(DE3), purified (Ni-NTA, TEV, reverse IMAC, ion exchange)) DRNKEKKEALSKVVIRRLPPTLTKEQLQEHLQPMPEHDYFEFFSNDTSLYPHMYARAYINFKNQEDIILFRDRFDGYVFLDNKGQEYPAIVEFAPFQKAAKKKTKKRDTKVGTIDDDPEYRKFLESAATDNEKMTSTPETLLEEIEAKN", "pKd": 8.48}

Let us examine a further case.
The binder listed as UPF3B-41–143 (domain or fragment, human, UniProt Q9BZI7 41-143, looked up, UPF3B, human, RRM-L domain, residues 41-143; also called RRM-L alone; RRM-L only; source: E. coli BL21 Rosetta2(DE3), purified (Ni-NTA, TEV, reverse IMAC, ion exchange)) DRNKEKKEALSKVVIRRLPPTLTKEQLQEHLQPMPEHDYFEFFSNDTSLYPHMYARAYINFKNQEDIILFRDRFDGYVFLDNKGQEYPAIVEFAPFQKAAKKK shows pKd equal to 6.14
